# System: MS2 coat protein
# test.summary: apparent KD of MS2 coat protein; designed switch direction (-1 OFF switch, 1 ON switch): 1; higher = weaker reporter binding
# particulars: Eterna round: R95; input ligand: microRNA oligo, concentration not stated
recorded.metric: apparent KD of MS2 coat protein (nM)
Answers are plain numbers, in nM.

UAGAGAGGAAGCGAGGAUAUCGUGGGAGGAACAUGAGGAUCACCCAUGUGUGAUGUUGAGAGGGACGAGAAGGCGCUGGAAAUUA [JR_SS2_Sub081] (puzzle: Same State 2) | 126
AUAAGUUCGAUGCUCGUCUCUCCGUACAAACAUGAGGAUCACCCAUGUGAUUAGGCAGUAGCCCAAUCAGUAUGGCC [Ariusveri] (puzzle: Sensor for hsa-mir-208a) | 21.8

Query string: Name the reported apparent KD of MS2 coat protein value associated with the sequence CGUAGGUAGCUGGAGGAUAUUCGAGUGGUAACAUGAGGAUCACCCAUGUGGUGAGAGGAACAUGAGGAGAAGGCUAGCUGCCUGC [JL-ss2-3.15 JL mod] (puzzle: Same State 2)
Result string: 96.2

----------
# Test system: MS2 coat protein
# test.summary: apparent KD of MS2 coat protein; designed switch direction (-1 OFF switch, 1 ON switch): -1; higher = weaker reporter binding
# particulars: Eterna round: R95; input ligand: microRNA oligo, concentration not stated
What apparent KD of MS2 coat protein was measured for each of the following?
Numbers only, in nM.

UCAAGCUUUAAGCGUGUGAACAUGAGGAUCACCCAUGUAUUUUUGGUUAGGAGUUCUGUAAGGGAUGCUCGUCUUAU [JR_SWV3TOV1_Sub093] (puzzle: Sensor v3, turn-off variant 1) | 47.5
UAGAUGGGAGGAUAUACGUAGAUGCAGGUUCGUGUGGUGCUACAUGAGGAUCACCCAUGUAGAAGGCCCGUCUU [JL-ex2-2.29 Mayanne mod] (puzzle: Exclusion 2) | 13.6

Query string: Recorded apparent KD of MS2 coat protein of CUUAGCCUAAAAUCACGCAAGCUCUUUGCUUGUCUUAAGACAUGAGGAUCACCCAUGUCCGGGCUGAACUUAUGGAA [Qugegele] (puzzle: Sensor v3, turn-off variant 2) , please.
Result string: 24.9

----------
Field: apparent KD of MS2 coat protein. Provide a value for each of the sequences that follow.
# System: MS2 coat protein
# test.summary: apparent KD of MS2 coat protein; designed switch direction (-1 OFF switch, 1 ON switch): 1; higher = weaker reporter binding
# particulars: input ligand: microRNA oligo, concentration not stated
One number for each entry, in nM.

AAAAUGGUAUGUUACAUGAGGAUCACCCAUGUACUCUAAUCUGAGGAUAUGGGAAUGUAGAAGAACCAGAAGGCAGACAUCCAA [AK SSNG3-V2-22.1] (Eterna round: R96, puzzle: Same State NG 3) | 70.2

I need apparent KD of MS2 coat protein for every entry listed below, if you could help.
1. AUUAUUAAUGCAGGAUAUGAUUAACAUGAGGAUCACCCAUGUGGUGUUGUGAGUAAGGAGAGUGAUCAGAAGGGCAUCUUUUUU [JMF's solution 10] (Eterna round: R96, puzzle: Same State NG 2)
2. UUAAUUUACUGAGGAUAUCGUGUCGACUGAGUUGACAUGAGGAUCACCCAUGUGAGAAGUGGUAUCGAGAAGGCAGUUUUCAUA [JR_SSNG2_Sub024] (Eterna round: R96, puzzle: Same State NG 2)

Result string:
312
59
